assay.procedure: Ex vivo biodistribution in PC-3 tumor-bearing mice
assay.conditions: male, NRG, mouse, muscle, iv, total radioactivity, Biodistribution Muscle Mean, 1 h post-injection, mice bearing PC-3 tumor xenografts, n = 4
Numbered stars: 1 amine (or outer) side, 2 acyl side, 3 side chain; on linkers, the order of the positions; unused ones are H or OH. Square brackets hold non-standard residues; d marks the D form. Peptide text beside a SMILES is read from it. * marks the point of attachment. DOTA = O=C(O)CN1CCN(CC(=O)O)CCN(CC(=O)*)CCN(CC(=O)O)CC1; Leuψ(CH2N)ThzNH2 = CC(C)C[C@@H](CN1CSC[C@H]1C(N)=O)N*; X1 = O=C(CN1CCC(N[*:1])CC1)[*:2]

compound: CC(C)C[C@@H](CN1CSC[C@H]1C(N)=O)NC(=O)[C@H](Cc1c[nH]cn1)NC(=O)CNC(=O)[C@@H](NC(=O)[C@H](C)NC(=O)[C@H](Cc1c[nH]c2ccccc12)NC(=O)[C@H](Cc1c[nH]cn1)NC(=O)[C@@H](Cc1ccccc1)NC(=O)CN1CCC(NC(=O)CN2CCN(CC(=O)O)CCN(CC(=O)O)CCN(CC(=O)O)CC2)CC1)C(C)C [^68Ga-LW01102, metal not drawn] ({DOTA}-[X1][dF]HWAVGH-{Leuψ(CH2N)ThzNH2})
tissue uptake at 1 h (%ID/g): 0.18

compound: CC(C)C[C@@H](CN1CSC[C@H]1C(N)=O)NC(=O)[C@H](Cc1c[nH]cn1)NC(=O)CNC(=O)[C@@H](NC(=O)[C@H](C)NC(=O)[C@H](Cc1c[nH]c2ccccc12)NC(=O)[C@H](CCC(N)=O)NC(=O)[C@@H](Cc1ccccc1)NC(=O)CN1CCC(NC(=O)CN2CCN(CC(=O)O)CCN(CC(=O)O)CCN(CC(=O)O)CC2)CC1)C(C)C [^68Ga-LW01045, metal not drawn]
tissue uptake at 1 h (%ID/g): 0.15

* * *

assay.procedure: Ex vivo biodistribution in PC-3 tumor-bearing mice
assay.conditions: male, NRG, mouse, lungs, iv, total radioactivity, Biodistribution Lungs Mean, 1 h post-injection, mice bearing PC-3 tumor xenografts, n = 4
Measured tissue uptake at 1 h, listed per entry for reference.
measure.name: tissue uptake at 1 h (%ID/g)

molecule: CC(C)C[C@@H](CN1CSC[C@H]1C(N)=O)NC(=O)[C@H](Cc1cnc[nH]1)NC(=O)CN(C)C(=O)[C@@H](NC(=O)[C@H](C)NC(=O)[C@H](Cc1c[nH]c2ccccc12)NC(=O)[C@H](CCC(N)=O)NC(=O)[C@@H](Cc1ccccc1)NC(=O)CN1CCC(NC(=O)CN2CCN(CC(=O)O)CCN(CC(=O)O)CCN(CC(=O)O)CC2)CC1)C(C)C [^68Ga-LW01090, metal not drawn]
units: %ID/g
value: 0.55
//
molecule: CC(C)C[C@@H](CN1CSC[C@H]1C(N)=O)NC(=O)[C@H](Cc1c[nH]cn1)NC(=O)CNC(=O)[C@@H](NC(=O)[C@H](C)NC(=O)[C@H](Cc1c[nH]c2ccccc12)NC(=O)[C@H](CCC(N)=O)NC(=O)[C@@H](Cc1ccc2ccccc2c1)NC(=O)CN1CCC(NC(=O)CN2CCN(CC(=O)O)CCN(CC(=O)O)CCN(CC(=O)O)CC2)CC1)C(C)C [^68Ga-LW01059, metal not drawn]
units: %ID/g
value: 3.05
//
molecule: CC(C)C[C@@H](CN1CSC[C@H]1C(N)=O)NC(=O)[C@H](Cc1c[nH]cn1)NC(=O)CNC(=O)[C@@H](NC(=O)[C@H](C)NC(=O)[C@H](Cc1c[nH]c2ccccc12)NC(=O)[C@H](CCC(N)=O)NC(=O)[C@@H](Cc1ccccc1)NC(=O)CN1CCC(NC(=O)CN2CCN(CC(=O)O)CCN(CC(=O)O)CCN(CC(=O)O)CC2)CC1)C(C)C [^68Ga-LW01045, metal not drawn]
units: %ID/g
value: 0.75
//
molecule: CC(C)C[C@H](NC(=O)[C@H](Cc1c[nH]cn1)NC(=O)CNC(=O)[C@@H](NC(=O)[C@H](C)NC(=O)[C@H](Cc1c[nH]c2ccccc12)NC(=O)[C@H](CCC(N)=O)NC(=O)[C@@H](Cc1ccc2ccccc2c1)NC(=O)CN1CCC(NC(=O)CN2CCN(CC(=O)O)CCN(CC(=O)O)CCN(CC(=O)O)CC2)CC1)C(C)C)C(=O)N1CSC[C@H]1C(N)=O [^68Ga-LW01029, metal not drawn]
units: %ID/g
value: 1.82

* * *

assay.procedure: in vivo
assay.conditions: male, NRG, mouse, iv, total radioactivity, Biodistribution Lungs Mean
Numbered stars: 1 amine (or outer) side, 2 acyl side, 3 side chain; on linkers, the order of the positions; unused ones are H or OH. Square brackets hold non-standard residues; d marks the D form. Peptide text beside a SMILES is read from it. * marks the point of attachment. DOTA = O=C(O)CN1CCN(CC(=O)O)CCN(CC(=O)*)CCN(CC(=O)O)CC1; Leuψ(CH2N)ThzNH2 = CC(C)C[C@@H](CN1CSC[C@H]1C(N)=O)N*; X1 = O=C(CN1CCC(N[*:1])CC1)[*:2]; Tle = CC(C)(C)[C@H](N)C(=O)O

compound: CC(C)C[C@@H](CN1CSC[C@H]1C(N)=O)NC(=O)[C@H](Cc1c[nH]cn1)NC(=O)CNC(=O)[C@@H](NC(=O)[C@H](C)NC(=O)[C@H](Cc1c[nH]c2ccccc12)NC(=O)[C@H](CCC(N)=O)NC(=O)[C@@H](Cc1ccccc1)NC(=O)CN1CCC(NC(=O)CN2CCN(CC(=O)O)CCN(CC(=O)O)CCN(CC(=O)O)CC2)CC1)C(C)(C)C [^68Ga-LW01158, metal not drawn] ({DOTA}-[X1][dF]QWA[Tle]GH-{Leuψ(CH2N)ThzNH2})
tissue uptake at 1 h / %ID/g: 1.19

* * *

assay.procedure: Ex vivo biodistribution in PC-3 tumor-bearing mice
assay.conditions: male, NRG, mouse, seminal, iv, total radioactivity, Biodistribution Seminal Mean, 1 h post-injection, mice bearing PC-3 tumor xenografts, n = 4
Measured tissue uptake at 1 h, listed per entry for reference.
measure.name: tissue uptake at 1 h (%ID/g)

compound: CC(C)C[C@H](NC(=O)[C@H](Cc1c[nH]cn1)N(C)C(=O)CNC(=O)[C@@H](NC(=O)[C@H](C)NC(=O)[C@H](Cc1c[nH]c2ccccc12)NC(=O)[C@H](CCC(N)=O)NC(=O)[C@@H](Cc1ccccc1)NC(=O)CN1CCC(NC(=O)CN2CCN(CC(=O)O)CCN(CC(=O)O)CCN(CC(=O)O)CC2)CC1)C(C)C)C(=O)N1CSC[C@H]1C(N)=O [^68Ga-LW01107, metal not drawn]
value: 0.04
--
compound: CC(C)C[C@H](NC(=O)[C@H](Cc1c[nH]cn1)NC(=O)CNC(=O)[C@@H](NC(=O)[C@H](C)NC(=O)[C@H](Cc1c[nH]c2ccccc12)NC(=O)[C@H](CCC(N)=O)NC(=O)[C@@H](Cc1ccccc1)NC(=O)CN1CCC(NC(=O)CN2CCN(CC(=O)O)CCN(CC(=O)O)CCN(CC(=O)O)CC2)CC1)C(C)(C)C)C(=O)N1CSC[C@H]1C(N)=O [^68Ga-LW01108, metal not drawn]
value: 0.11

* * *

assay.procedure: in vivo
assay.conditions: male, NRG, mouse, iv, total radioactivity, Biodistribution PC3 tumor Mean

compound: CC(C)C[C@H](NC(=O)[C@H](Cc1c[nH]cn1)NC(=O)CNC(=O)[C@@H](NC(=O)[C@H](C)NC(=O)[C@H](Cc1c[nH]c2ccccc12)NC(=O)[C@H](CCC(N)=O)NC(=O)[C@@H](Cc1ccccc1)NC(=O)CN1CCC(NC(=O)CN2CCN(CC(=O)O)CCN(CC(=O)O)CCN(CC(=O)O)CC2)CC1)C(C)(C)C)C(=O)N1CSC[C@H]1C(N)=O [^68Ga-LW01108, metal not drawn]
tissue uptake at 1 h: 5.9 %ID/g
//
compound: CC(C)C[C@H](NC(=O)[C@H](Cc1c[nH]cn1)N(C)C(=O)CNC(=O)[C@@H](NC(=O)[C@H](C)NC(=O)[C@H](Cc1c[nH]c2ccccc12)NC(=O)[C@H](CCC(N)=O)NC(=O)[C@@H](Cc1ccccc1)NC(=O)CN1CCC(NC(=O)CN2CCN(CC(=O)O)CCN(CC(=O)O)CCN(CC(=O)O)CC2)CC1)C(C)C)C(=O)N1CSC[C@H]1C(N)=O [^68Ga-LW01107, metal not drawn]
tissue uptake at 1 h: 7.05 %ID/g

* * *

assay.procedure: in vivo
assay.conditions: male, NRG, mouse, iv, total radioactivity, Biodistribution Large Intestine Mean
Numbered stars: 1 amine (or outer) side, 2 acyl side, 3 side chain; on linkers, the order of the positions; unused ones are H or OH. Square brackets hold non-standard residues; d marks the D form. Peptide text beside a SMILES is read from it. * marks the point of attachment. DOTA = O=C(O)CN1CCN(CC(=O)O)CCN(CC(=O)*)CCN(CC(=O)O)CC1; Leuψ(CH2N)ThzNH2 = CC(C)C[C@@H](CN1CSC[C@H]1C(N)=O)N*; NMeH = CN[C@@H](Cc1c[nH]cn1)C(=O)O; X1 = O=C(CN1CCC(N[*:1])CC1)[*:2]; Tle = CC(C)(C)[C@H](N)C(=O)O; Thz = O=C(O)[C@@H]1CSCN1
// classify: if (tissue uptake at 1 h < 1 %ID/g) 1 else 0

molecule: CC(C)C[C@H](NC(=O)[C@H](Cc1cnc[nH]1)N(C)C(=O)CNC(=O)[C@@H](NC(=O)[C@H](C)NC(=O)[C@H](Cc1c[nH]c2ccccc12)NC(=O)[C@H](Cc1c[nH]cn1)NC(=O)[C@@H](Cc1ccccc1)NC(=O)CN1CCC(NC(=O)CN2CCN(CC(=O)O)CCN(CC(=O)O)CCN(CC(=O)O)CC2)CC1)C(C)(C)C)C(=O)N1CSC[C@H]1C(N)=O [^68Ga-LW01142, metal not drawn] ({DOTA}-[X1][dF]HWA[Tle]G[NMeH]L[Thz]-NH2)
assigned.class: 0

molecule: CC(C)C[C@@H](CN1CSC[C@H]1C(N)=O)NC(=O)[C@H](Cc1c[nH]cn1)NC(=O)CNC(=O)[C@@H](NC(=O)[C@H](C)NC(=O)[C@H](Cc1c[nH]c2ccccc12)NC(=O)[C@H](CCC(N)=O)NC(=O)[C@@H](Cc1ccccc1)NC(=O)CN1CCC(NC(=O)CN2CCN(CC(=O)O)CCN(CC(=O)O)CCN(CC(=O)O)CC2)CC1)C(C)(C)C [^68Ga-LW01158, metal not drawn] ({DOTA}-[X1][dF]QWA[Tle]GH-{Leuψ(CH2N)ThzNH2})
assigned.class: 0

molecule: CC(C)C[C@H](NC(=O)[C@H](Cc1cnc[nH]1)N(C)C(=O)CNC(=O)[C@@H](NC(=O)[C@H](C)NC(=O)[C@H](Cc1c[nH]c2ccccc12)NC(=O)[C@H](CCC(N)=O)NC(=O)[C@@H](Cc1ccccc1)NC(=O)CN1CCC(NC(=O)CN2CCN(CC(=O)O)CCN(CC(=O)O)CCN(CC(=O)O)CC2)CC1)C(C)(C)C)C(=O)N1CSC[C@H]1C(N)=O [^68Ga-LW01110, metal not drawn]
assigned.class: 0

molecule: CC(C)C[C@H](NC(=O)[C@H](Cc1c[nH]cn1)NC(=O)CNC(=O)[C@@H](NC(=O)[C@H](C)NC(=O)[C@H](Cc1c[nH]c2ccccc12)NC(=O)[C@H](CCC(N)=O)NC(=O)[C@@H](Cc1ccccc1)NC(=O)CN1CCC(NC(=O)CN2CCN(CC(=O)O)CCN(CC(=O)O)CCN(CC(=O)O)CC2)CC1)C(C)(C)C)C(=O)N1CSC[C@H]1C(N)=O [^68Ga-LW01108, metal not drawn]
assigned.class: 0

molecule: CC(C)C[C@H](NC(=O)[C@H](Cc1c[nH]cn1)N(C)C(=O)CNC(=O)[C@@H](NC(=O)[C@H](C)NC(=O)[C@H](Cc1c[nH]c2ccccc12)NC(=O)[C@H](CCC(N)=O)NC(=O)[C@@H](Cc1ccccc1)NC(=O)CN1CCC(NC(=O)CN2CCN(CC(=O)O)CCN(CC(=O)O)CCN(CC(=O)O)CC2)CC1)C(C)C)C(=O)N1CSC[C@H]1C(N)=O [^68Ga-LW01107, metal not drawn]
assigned.class: 1
